assayTarget: rat brain TSPO (Rattus norvegicus)
Sequence (P16257 whole entry): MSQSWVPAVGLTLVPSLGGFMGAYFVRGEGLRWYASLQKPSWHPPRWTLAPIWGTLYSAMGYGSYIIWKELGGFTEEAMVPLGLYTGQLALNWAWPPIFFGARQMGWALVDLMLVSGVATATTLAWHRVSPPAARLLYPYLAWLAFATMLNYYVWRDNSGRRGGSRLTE
Type: binding
setupConditions: pKi (rat) minus clogD
reportedEndpoint: LipE

compound	reportedEndpoint	observedResult
CCCCCN(C)C(=O)C(C)Cc1cc(-c2ccccc2)nc2ccccc12 (centres unmarked) [10i]	LipE	2.6
CC(Cc1cc(-c2ccccc2)nc2ccccc12)C(=O)N(C)c1cccc(F)c1 (centres unmarked) [10s]	LipE	3.5
CC(Cc1cc(-c2ccccc2Cl)nc2ccccc12)C(=O)N(C)C(C)C (centres unmarked) [10u]	LipE	3.2
CC(Oc1cc(-c2ccccn2)nc2ccccc12)C(=O)N(C)c1ccccc1 (centres unmarked) [22a]	LipE	5.9
CCCCN(C)C(=O)C(C)Cc1cc(-c2ccccc2)nc2ccccc12 (centres unmarked) [10h]	LipE	3.9

a = CC(Nc1cc(-c2ccccc2)nc2ccccc12)C(=O)N(C)c1ccccc1 (centres unmarked) [compound 14]
b = CN1CCC(Cc2cc(-c3ccccc3)nc3ccccc23)C1=O (centres unmarked) [10d]
c = CC(Cc1cc(-c2ccccc2)nc2ccccc12)C(=O)N(C)c1ccncc1 (centres unmarked) [10q]
# input Ordering: ascending LipE. Answer by listing the labels in the order asked for.
# output c, b, a
(c: 1.7, b: 3.6, a: 5.62)

====

Target or system UniProtKB P16257: recorded pKi listed per item.
pKi: −log10 of the molar value.
reportedEndpoint: pKi

compound	pKi
CC(Cc1cc(-c2ccccc2)nc2ccccc12)C(=O)N(C)c1ccc(F)cc1 (centres unmarked) [10t]	9.40

1 = CC(Cc1cc(-c2ccccc2)nc2ccccc12)C(=O)N(C)C (centres unmarked) [10e]
2 = CCN(CC)C(=O)[C@@H](C)Cc1cc(-c2ccccc2)nc2ccccc12 [(S)-10a]
3 = CCN(CC)C(=O)[C@H](C)Cc1cc(-c2ccccc2)nc2ccccc12 [(R)-10a]
4 = CC(Oc1cc(-c2ccccn2)nc2ccccc12)C(=O)N(C)c1ccccc1 (centres unmarked) [22a]
# input Falling order of pKi, please. Answer by listing the labels in the order asked for.
# output 4, 3, 1, 2
(4: 10.00, 3: 9.05, 1: 7.40, 2: 7.14)

====

assayTarget: human leukocyte HAB TSPO (Homo sapiens, UniProt P30536, T147A)
Sequence (P30536 whole entry T147A): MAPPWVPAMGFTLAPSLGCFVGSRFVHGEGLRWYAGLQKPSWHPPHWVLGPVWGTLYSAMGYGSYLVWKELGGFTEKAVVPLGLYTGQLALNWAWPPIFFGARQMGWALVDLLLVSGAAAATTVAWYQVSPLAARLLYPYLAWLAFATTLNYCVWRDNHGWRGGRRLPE
protocolNotes: Ligand binding affinity to human leukocyte HAB TSPO
reportedEndpoint: Ki (nM)

compound	u	observedResult
CC(Oc1cc(-c2cccnc2)nc2ccccc12)C(=O)N(C)c1ccccc1 (stereo not shown) [22b]	nM	0.9
CC(Oc1cc(-c2ccccn2)nc2ccccc12)C(=O)N(C)c1ccccc1 (stereo not shown) [22a]	nM	1.4
CCCCN(C)C(=O)C(C)Cc1cc(-c2ccccc2)nc2ccccc12 (stereo not shown) [10h]	nM	1
CC(Oc1cc(-c2ccncc2)nc2ccccc12)C(=O)N(C)c1ccccc1 (stereo not shown) [22c]	nM	1

====

assayTarget: rat brain TSPO (Rattus norvegicus)
Format: binding
setupConditions: pKi (rat) minus clogD
reportedEndpoint: LipE

compound	observedResult
CC(Cc1cc(-c2ccc(Cl)cc2)nc2ccccc12)C(=O)N(C)C(C)C (centres unmarked) [10w]	3.6
CC(Cc1cc(-c2ccccc2)nc2ccccc12)C(=O)N(C)c1ccc(F)cc1 (centres unmarked) [10t]	4.1
CC(Cc1cc(-c2ccccc2)nc2ccccc12)C(=O)N(C)c1ccccn1 (centres unmarked) [10o]	3.6
CCN(CC)C(=O)[C@H](C)Cc1cc(-c2ccccc2)nc2ccccc12 [(R)-10a]	4.72
CCN(CC)C(=O)C(C)Cc1cc(-c2ccccc2)nc2ccccc12 (centres unmarked) [10a]	4.4

Values from paper PMC4216211
